Target: T1, hOX40-muFc (human; mouse, UniProt P43489 29-216)
T1 construct: range 1-216; Expressed in HEK293, purified on Protein A; also called recombinant human OX40; not shown: mouse IgG1-Fc (muFc) domain, residue 98 to residue 324 of P01868
T1 sequence (looked up): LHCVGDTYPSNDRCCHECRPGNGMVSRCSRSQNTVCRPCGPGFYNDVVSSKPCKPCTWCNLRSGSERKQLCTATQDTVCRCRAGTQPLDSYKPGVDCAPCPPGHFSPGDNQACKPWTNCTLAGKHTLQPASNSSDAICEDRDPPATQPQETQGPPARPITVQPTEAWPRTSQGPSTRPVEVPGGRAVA
Experiment: SPR, BIAcore X100; antibody captured by anti-human Fc on CM5 chip, OX40-muFc as analyte, 1:1 model
// reported koff for each item listed
Lab book: enter the figure in s⁻¹, no units written.

Exercise: Looking for the measured koff of O21 mAb (antibody, IgG4, V domains shown, also called 021 mAb; anti-OX40 21# mAb; not shown: human immunoglobulin gamma4 (IgG4) constant region, P01861; human immunoglobulin kappa light chain constant region, P01834) VH: QVQLQQSGPGLVKPSQTLSLTCAISGDSVSSNSVSWDWIRQSPSRGLEWLGRTYYRSKWYNEYAVSVESRITINPDTSKNQFSLQLNSVTPEDTAIYFCVRNNYFFDLWGRGTLVTVSS VL: EIVLTQSPATLSLSPGERATLSCRASQSVSSYLAWYQQKPGQAPRLLIYDASDRATGIPARFSGSGSGTDFTLTISSLEPEDFAVYYCQLRSNWPPGYTFGQGTKVEIK , can you help?
Key: 0.000608

Exercise: Looking for the measured koff of anti-OX40 21#H96-L80 mAb (antibody, V domains shown, Formatted as IgG according to Embodiment 3 (IgG4); also called H96-L80 IgG4; not shown: human immunoglobulin gamma4 (IgG4) constant region, P01861; human immunoglobulin kappa light chain constant region, P01834) VH: QVQLQQSGPGLVKPSQTLSLTCAISGDSVSSNSVSWDWIRQSPSRGLEWLGRTYYRSKWYNEYAVSVESRITINPDTSKNQFSLQLNSVTPEDTAIYFCVRNDYFFDLWGRGTLVTVSS VL: EIVLTQSPATLSLSPGERATLSCRASQSVGSYLAWYQQKPGQAPRLLIYDASNRATGIPARFSGSGSGTDFTLTISSLEPEDFAVYYCQQRSNWPPGYTFGQGTKVEIK , can you help?
Key: 0.000237

Exercise: Looking for the measured koff of anti-OX40 21#VHnew-L80 mAb (antibody, IgG4, V domains shown, Formatted as IgG according to Embodiment 3 (IgG4); not shown: human immunoglobulin gamma4 (IgG4) constant region, P01861; human immunoglobulin kappa light chain constant region, P01834) VH: QVQLQQSGPGLVKPSQTLSLTCAISGDSVSSNGVSWDWIRQSPSRGLEWLGRTYYRSKWYNEYAVSVENRITINPDTSKNQFSLQLNSVTPEDTAIYFCVRNDYFFDLWGRGTLVTVSS VL: EIVLTQSPATLSLSPGERATLSCRASQSVGSYLAWYQQKPGQAPRLLIYDASNRATGIPARFSGSGSGTDFTLTISSLEPEDFAVYYCQQRSNWPPGYTFGQGTKVEIK , can you help?
Key: 0.000342

Exercise: Looking for the measured koff of O3 mAb (antibody, IgG4, V domains shown, IgG4, lambda; expressed in HEK293; also called 03 mAb; not shown: human immunoglobulin gamma4 (IgG4) constant region, P01861; human immunoglobulin lambda light chain constant region, A0M8Q6) VH: QVQLQQWGAGLLKPSETLSLTCGFNGEYFTDYFWTWVRQPPGEALEWLALIYWDDDERYSPSLKNRLIITKDISKNQVVLTMTHMEPADTGTYYCARWGGSLMNAFDVWGPGTMVTVSS VL: QSALIQPASVSGSPGQSITISCTGTSSDVGGYNYVSWYQRHPGKAPRLMIYDVTKRPSGVSNRFSGSKSGNTASLTISGLQAEDEADYYCSSYTSSSIAVFGGGTQLTVL , can you help?
Key: 0.000391
